# Test system: ATP;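 further: ATP exposure 15 min at 22 °C before imaging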
# PROCEDURE SUMMARY: switch fluorescence ratio, 500 uM ATP over buffer (Cy3 cluster intensity, sum of 5 cycles each) (fold (ratio)); higher = stronger signal-on switching upon ATP binding; sequences stand for … in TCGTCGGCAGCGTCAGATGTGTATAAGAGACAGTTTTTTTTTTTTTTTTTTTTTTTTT…TC
# EXPERIMENTAL CONDITIONS: aptamer strand: ATP DNA aptamer (quencher-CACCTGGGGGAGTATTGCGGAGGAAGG + anchor), 100 nM annealed; ATP concentration: 500 uM
PROPERTY NAME: switch fluorescence ratio
I'd appreciate a reply containing only the number, no unit.

Query :: Requested field: switch fluorescence ratio. Item: ATTTTATTAT
Result :: 1.01

Query :: What about ATACTTACTT ?
Result :: 1.2

Query :: Another: CCAGACACAG
Result :: 0.985

Query :: Okay, and CAAGGGCCCA ?
Result :: 0.994

Query :: Likewise for CAATATGTGC ?
Result :: 1.01

Query :: What do we get for GGGTTTGAA ?
Result :: 0.988

Query :: Also TGCAATGTTG , if possible.
Result :: 1.04

Query :: Same lookup for AGGTCGGCTT , please.
Result :: 1.01

Query :: Check TTCACTTGTG too.
Result :: 1

Query :: Next sequence: TAGCGGGCCG
Result :: 1.01

Data provenance: the supplement of paper PMC10126150
